Reported phosphorylation enrichment values for a set of sequences
Tested on: Fer (mouse)
assayMethodText: phosphorylation enrichment, bacterial display (enrichment ratio); higher = better substrate or ligand; peptides without Tyr show the background

sequenceContent | experimentalSystem | phosphorylation enrichment
VISNAYVDLSP [HSD17B4_Y602_A606S] | Fer (mouse) | 0.511
NTVLGYFIGCI [GARS1_Y408_R412C] | Fer (mouse) | 0.598
FSPPFYHRNCM [HGD_Y334_R330S_YF] | Fer (mouse) | 0.465
AELVQYYMEHH [PTPN11_Y80] | Fer (mouse) | 0.494
ITNLLYHVVGG [GBA_Y412_W417G] | Fer (mouse) | 1.32
IRKTEYPFSSE [ATP2C1_Y452_A450T] | Fer (mouse) | 0.339
SRDDYYETIAM [NPY1R_Y347_D346Y] | Fer (mouse) | 4.75
AAALAYGLDKS [HSPA9_Y230] | Fer (mouse) | 0.467
PGPQSYPIVTG [PAX5_Y299] | Fer (mouse) | 0.744
FADIAYNFRHR [PAH_Y166_G171R_YF] | Fer (mouse) | 0.348
VFDMLYQLANL [USP24_Y1087] | Fer (mouse) | 14.1
LRFDSYSSFCN [SLC20A2_Y433_YF] | Fer (mouse) | 0.617
RKELFYKADGE [SERPINC1_Y272] | Fer (mouse) | 0.783
GSERDYTFDEL [EIF2S2_Y174_E177D_YF] | Fer (mouse) | 0.582
VYLGAYDCFLP [SLC22A5_Y486_R488C] | Fer (mouse) | 7.23
TESALYGCTIL [MAP3K21_Y724_V728I] | Fer (mouse) | 4.72
TLSGIYQYSIA [FOXL2_Y81_I84S] | Fer (mouse) | 8.33
EFLKNYFTDKA [DSG2_Y775_R773K] | Fer (mouse) | 0.361
RGGDSYGGPPR [RBMX_Y190_R187G] | Fer (mouse) | 0.441
TSSAVYMNLAS [GATAD2B_Y317_I316V] | Fer (mouse) | 0.818
ADKAAYLQNLN [MYH1_Y389] | Fer (mouse) | 0.53
HTKKNYGNSSV [HDX_Y197_A193T] | Fer (mouse) | 0.393
FQASFYRRGDR [LTK_Y677_R673Q_YF] | Fer (mouse) | 0.495
FRPHLYGTPSR [ADGRE2_Y670_S665F] | Fer (mouse) | 0.945
AEMTGYVMTRW [MAPK13_Y182_V184M] | Fer (mouse) | 0.537
EDAHHYLCKEV [JAK2_Y382_A377E] | Fer (mouse) | 0.441
ILGLEYSLRVP [HELZ2_Y1304] | Fer (mouse) | 0.48
GIVEDYRPTFY [ACVRL1_Y421_P424T] | Fer (mouse) | 0.373

###

Reported phosphorylation enrichment values for a set of sequences
experimentalSystem: Hck (UniProt P08631)
Sequence (P08631 whole entry, looked up): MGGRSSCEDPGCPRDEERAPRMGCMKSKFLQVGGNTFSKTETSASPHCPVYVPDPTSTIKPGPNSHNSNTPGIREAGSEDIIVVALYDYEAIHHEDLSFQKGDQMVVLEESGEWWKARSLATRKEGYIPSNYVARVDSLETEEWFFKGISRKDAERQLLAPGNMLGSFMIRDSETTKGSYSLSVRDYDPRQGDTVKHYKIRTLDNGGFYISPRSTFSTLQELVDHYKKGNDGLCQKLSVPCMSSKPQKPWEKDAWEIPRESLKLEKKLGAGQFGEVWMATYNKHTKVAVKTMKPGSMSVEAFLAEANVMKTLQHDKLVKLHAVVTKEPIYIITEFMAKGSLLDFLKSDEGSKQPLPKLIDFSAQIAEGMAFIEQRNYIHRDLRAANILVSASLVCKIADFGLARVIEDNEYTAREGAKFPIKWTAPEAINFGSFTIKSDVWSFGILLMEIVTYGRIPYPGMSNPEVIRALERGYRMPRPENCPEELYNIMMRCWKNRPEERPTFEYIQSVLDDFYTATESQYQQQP
assayMethodText: phosphorylation enrichment, bacterial display (enrichment ratio); higher = better substrate or ligand; peptides without Tyr show the background

sequenceContent | phosphorylation enrichment
FADIAYNFRHR [PAH_Y166_G171R_YF] | 0.374
VSRGRYRPQEC [B4GALT4_Y113] | 0.49
LRAGVYHEKDQ [DNM2_Y626_P627H] | 0.605
EFITRYIASLK [PSMA7_Y110_YF] | 0.436
IVFTSYFLTIL [TAS2R16_Y239] | 0.633
EKPAKYDDIKK [GAPDH_Y255] | 0.426
KRFRIYHLATS [BRCA2_Y3009_YF] | 0.454

###

experimentalSystem: Fes (UniProt P07332)
Sequence (P07332 whole entry, looked up): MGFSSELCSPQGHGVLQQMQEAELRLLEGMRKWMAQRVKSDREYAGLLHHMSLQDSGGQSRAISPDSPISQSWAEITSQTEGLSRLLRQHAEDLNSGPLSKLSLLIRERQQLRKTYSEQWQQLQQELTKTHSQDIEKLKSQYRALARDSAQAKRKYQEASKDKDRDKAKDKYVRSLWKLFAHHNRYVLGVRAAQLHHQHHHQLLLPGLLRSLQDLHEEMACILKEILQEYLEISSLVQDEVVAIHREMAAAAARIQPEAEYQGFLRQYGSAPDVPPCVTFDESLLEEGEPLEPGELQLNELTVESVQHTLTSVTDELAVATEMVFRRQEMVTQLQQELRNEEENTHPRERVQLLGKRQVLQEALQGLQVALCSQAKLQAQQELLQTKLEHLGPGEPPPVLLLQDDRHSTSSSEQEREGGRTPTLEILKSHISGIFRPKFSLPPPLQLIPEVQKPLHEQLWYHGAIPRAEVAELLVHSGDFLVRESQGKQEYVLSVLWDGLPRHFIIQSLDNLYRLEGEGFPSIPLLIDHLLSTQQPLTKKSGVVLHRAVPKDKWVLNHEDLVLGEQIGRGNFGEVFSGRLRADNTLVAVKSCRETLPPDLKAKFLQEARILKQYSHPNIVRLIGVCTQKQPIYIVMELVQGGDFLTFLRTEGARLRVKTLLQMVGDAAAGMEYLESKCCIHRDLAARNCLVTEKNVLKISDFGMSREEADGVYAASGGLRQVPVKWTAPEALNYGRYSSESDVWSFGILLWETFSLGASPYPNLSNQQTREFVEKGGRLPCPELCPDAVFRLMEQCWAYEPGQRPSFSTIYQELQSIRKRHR
assayMethodText: phosphorylation enrichment, bacterial display (enrichment ratio); higher = better substrate or ligand; peptides without Tyr show the background
Reported phosphorylation enrichment values for a set of sequences

sequenceContent | phosphorylation enrichment
SRFQFYFQQKG [CHKB_Y381] | 1.56
PQEVMYAQLDH [KIR3DL2_Y398_T397M] | 1.52
CTTIHYNFMHN [TP53_Y234_C238H_YF] | 1
QDLRLYRPHLA [BTK_Y617_G613D] | 0.931
TSKLSYLDPRI [TOP1_Y723_N722S] | 0.679
AEMTGYVMTRW [MAPK13_Y182_V184M] | 1.23
RLLRGYRQDAY [HLA-A_Y137_F133L] | 0.777

###

Reported phosphorylation enrichment values for a set of sequences
experimentalSystem: Hck (UniProt P08631)
assayMethodText: phosphorylation enrichment, bacterial display (enrichment ratio); higher = better substrate or ligand; peptides without Tyr show the background

sequenceContent | phosphorylation enrichment
IGMIIYFARKA [VCAM1_Y718] | 1.09
HEEDNYIELIP [NWD2_Y566] | 1.02
GSERDYTFEEL [EIF2S2_Y174_YF] | 0.505
FRSSLYSLMET [MYO5C_Y633_L634S] | 4.03
KLSCSYSHWSA [C4BPA_Y470] | 0.636
GMAHNYRNSSQ [AASS_Y188] | 0.414
FSPPFYHRNCM [HGD_Y334_R330S_YF] | 0.457
AAQNCYKVTNA [TPI1_Y105_G110A] | 0.36
ECKFLYSRKEG [PTPN11_Y263_L261F] | 0.618
SLESAYPEGSQ [TTF1_Y357] | 0.593
ERRLIYASDPK [VPS13D_Y864_T865A] | 0.473
PTFEHYANSTQ [SLC12A3_Y70_YF] | 0.598
NYRPGYNNFYN [USH2A_Y467] | 0.621
DSMQSYDLDFP [UNC13B_Y243_YF] | 0.461
QDLRLYRPHLA [BTK_Y617_G613D] | 0.548
AYRRGYFDEEM [PLEC_Y2971] | 0.397
FPKDVYVDSKD [NDUFAF4_Y69_L65P] | 0.444
MDFRSYPREFG [RBM10_Y44_YF] | 0.388
GIVEDYRPTFY [ACVRL1_Y421_P424T] | 0.475
WKGSWYSMRKM [FGB_Y475] | 0.523
WFPANYVKLLS [ITSN1_Y1132] | 0.549
TLKVGYTEKQR [EPHA3_Y659] | 0.353
AIQDAYMHITS [ADCY10_Y318] | 0.457
RAHARYCADAC [ACOT4_Y52_R57C] | 0.45
ECKETYHEGEC [PRKN_Y372_A371T] | 0.694
VDHFGYTKDDK [APOB_Y740] | 0.463
KLCHLYQDHMQ [WNT5A_Y86] | 0.554
RGKEPYTKKAL [TTC21B_Y160] | 0.436
CDSSGYWTPEE [PAPPA2_Y908] | 0.555
AEFGLYAAMVR [VSX2_Y222_G223A_YF] | 4.34

###

experimentalSystem: Jak2 (UniProt O60674)
Sequence (O60674 whole entry, looked up): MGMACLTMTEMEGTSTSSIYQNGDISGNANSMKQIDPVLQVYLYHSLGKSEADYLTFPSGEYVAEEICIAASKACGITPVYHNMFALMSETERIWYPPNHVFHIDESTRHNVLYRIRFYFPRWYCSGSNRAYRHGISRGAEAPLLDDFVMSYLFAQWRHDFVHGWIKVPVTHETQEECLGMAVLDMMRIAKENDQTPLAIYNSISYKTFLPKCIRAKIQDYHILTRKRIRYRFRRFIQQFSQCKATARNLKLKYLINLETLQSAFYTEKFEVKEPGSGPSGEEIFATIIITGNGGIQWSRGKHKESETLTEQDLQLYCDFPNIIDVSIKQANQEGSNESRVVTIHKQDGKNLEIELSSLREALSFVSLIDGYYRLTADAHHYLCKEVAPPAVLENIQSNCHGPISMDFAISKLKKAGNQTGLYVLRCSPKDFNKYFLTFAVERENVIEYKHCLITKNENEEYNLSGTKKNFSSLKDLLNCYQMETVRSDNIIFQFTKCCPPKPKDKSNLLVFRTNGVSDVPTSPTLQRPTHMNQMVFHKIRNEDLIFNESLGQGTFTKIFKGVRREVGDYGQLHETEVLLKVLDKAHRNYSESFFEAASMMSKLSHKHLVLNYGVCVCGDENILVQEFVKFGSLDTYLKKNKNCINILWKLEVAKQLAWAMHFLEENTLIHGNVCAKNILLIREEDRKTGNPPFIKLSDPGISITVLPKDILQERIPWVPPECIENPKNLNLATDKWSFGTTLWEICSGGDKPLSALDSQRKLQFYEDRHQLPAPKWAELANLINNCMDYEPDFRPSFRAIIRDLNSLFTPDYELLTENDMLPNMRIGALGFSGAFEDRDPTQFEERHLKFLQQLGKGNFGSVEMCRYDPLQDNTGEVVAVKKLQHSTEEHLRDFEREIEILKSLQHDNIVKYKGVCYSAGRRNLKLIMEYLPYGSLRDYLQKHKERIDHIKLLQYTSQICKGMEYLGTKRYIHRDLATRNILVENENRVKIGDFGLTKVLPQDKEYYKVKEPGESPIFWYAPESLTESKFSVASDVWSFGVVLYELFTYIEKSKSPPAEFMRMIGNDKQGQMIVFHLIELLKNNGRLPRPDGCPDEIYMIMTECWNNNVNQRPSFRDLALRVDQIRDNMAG
assayMethodText: phosphorylation enrichment, bacterial display (enrichment ratio); higher = better substrate or ligand; peptides without Tyr show the background
Where phosphorylation enrichment equals or exceeds 0.8, the correct label is MET; where it does not, the label is NOT MET.

sequenceContent | classAssignment
EQSGSYIWVLA [DLG1_Y895_P899L] | MET
ECKFLYSRKEG [PTPN11_Y263_L261F] | MET
KRYRIYHLAIS [BRCA2_Y3009_T3013I] | NOT MET
MKGDFYCFLAE [YWHAG_Y131_R132C_YF] | MET
RAEAPYLLVSN [LRIG1_Y1054_Q1053P] | NOT MET
EDASEYFENYI [PARP4_Y214] | MET
GLVFLYMEKNQ [PRELP_Y156] | MET
LNPVVYTLRNA [OR4C12_Y285] | MET
HHLSTYTKMLF [CHST8_Y251_R247H] | NOT MET
IYQASYYRRGD [LTK_Y676_R673Q] | NOT MET
SVTSTYSPALN [TP53_Y126_C124S] | NOT MET

###

experimentalSystem: SHP2-C SH2;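 further: peptide library displayed on the E. coli surface as eCPX fusions, selected cells deep-sequenced, score is each peptide's frequency after selection divided by its frequency in the input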
assayMethodText: SH2 binding enrichment of the phosphorylated peptide, bacterial display (enrichment ratio); higher = better substrate or ligand; peptides without Tyr show the background
Entries get a class label from measured SH2 binding enrichment. See ranges: class A (below 0.6), class B (0.6 to below 0.7), class C (0.7 or more)

sequenceContent | classAssignment
STTSDYQWDFS [MTDH_Y364_V368F] | class B
KVGPGSLGSGG [RET_Y826_Y826S] | class A
ISIFYYAKGQP [MPZ_Y82_H81Y] | class B
KNSSIYVVANI [VNN1_Y134_N131S] | class C
TDLAYYLVREG [ASL_Y376_K380E] | class C
GIYSGYDDAWD [POLR1C_Y36_N32I] | class B
KDAGDYKYKAK [LRIT3_Y326_C328Y] | class A
SAPDSYIGIGN [SLC38A4_Y27] | class C
NIRKKYFRAIL [CHD7_Y1217_Q1214R_YF] | class A
DLLNSYTENEG [HSPA4L_Y600_I601T] | class C
